Each entry below carries its reported Pre-emergence herbicidal activity, ALOMY.
Test system: Alopecurus myosuroides (ALOMY)
procedure_details: B1 pre-emergence herbicidal activity
Format: in vivo
test_parameters: Test 1b, rate 1000 g/ha, evaluated after 13 days, score 0-5 (5=total damage, 0=no damage)

{"molecule_smiles": "CC(C)(C)OC(=O)Nc1cnc(-c2cncnc2)nc1C(F)(F)F", "assayed_system": "Alopecurus myosuroides (ALOMY)", "Pre-emergence herbicidal activity, ALOMY": 1}
{"molecule_smiles": "CN(C)C(=O)Nc1cnc(-c2cncc(F)c2)nc1C(F)(F)F", "assayed_system": "Alopecurus myosuroides (ALOMY)", "Pre-emergence herbicidal activity, ALOMY": 0}
{"molecule_smiles": "CCCOC(=O)Nc1cnc(-c2cncc(F)c2)nc1C(F)(F)F", "assayed_system": "Alopecurus myosuroides (ALOMY)", "Pre-emergence herbicidal activity, ALOMY": 0}
{"molecule_smiles": "CN(C(=O)OC(C)(C)C)c1cnc(-c2cncc(F)c2)nc1C(F)(F)F", "assayed_system": "Alopecurus myosuroides (ALOMY)", "Pre-emergence herbicidal activity, ALOMY": 0}
{"molecule_smiles": "CN1CCN(c2cnc(-c3cncc(F)c3)nc2C(F)(F)F)C1=O", "assayed_system": "Alopecurus myosuroides (ALOMY)", "Pre-emergence herbicidal activity, ALOMY": 0}

* * *

Reported Pre-emergence herbicidal activity, LOLPE by item:
Test system: Lolium perenne (LOLPE)
procedure_details: B1 pre-emergence herbicidal activity
Format: in vivo
test_parameters: Test 1b, rate 1000 g/ha, evaluated after 13 days, score 0-5 (5=total damage, 0=no damage)

{"molecule": "CCCOC(=O)Nc1cnc(-c2cncc(F)c2)nc1C(F)(F)F [Compound E10]", "Pre-emergence herbicidal activity, LOLPE": 1}
{"molecule": "CC(C)OC(=O)N(C(=O)OC(C)C)c1cnc(-c2cncc(F)c2)nc1C(F)(F)F [Compound E22]", "Pre-emergence herbicidal activity, LOLPE": 0}
{"molecule": "CC(C)(C)OC(=O)Nc1cnc(-c2cncc(F)c2)nc1C(F)(F)F [Compound E4]", "Pre-emergence herbicidal activity, LOLPE": 1}
{"molecule": "CN(C)C(=O)Nc1cnc(-c2cncc(F)c2)nc1C(F)(F)F [Compound E13]", "Pre-emergence herbicidal activity, LOLPE": 1}
{"molecule": "CCC(C)OC(=O)Nc1cnc(-c2cncc(F)c2)nc1C(F)(F)F (stereo not drawn) [Compound E18]", "Pre-emergence herbicidal activity, LOLPE": 0}
{"molecule": "C=CCN(C(=O)OC(C)(C)C)c1cnc(-c2cncnc2)nc1C [Compound E6]", "Pre-emergence herbicidal activity, LOLPE": 1}
{"molecule": "COC(=O)Nc1cnc(-c2cncc(F)c2)nc1C(F)(F)F [Compound E21]", "Pre-emergence herbicidal activity, LOLPE": 0}
{"molecule": "CN1CCN(c2cnc(-c3cncc(F)c3)nc2C(F)(F)F)C1=O [Compound E9]", "Pre-emergence herbicidal activity, LOLPE": 1}
{"molecule": "CC(C)COC(=O)Nc1cnc(-c2cncc(F)c2)nc1C(F)(F)F [Compound E15]", "Pre-emergence herbicidal activity, LOLPE": 1}
{"molecule": "CC(C)OC(=O)Nc1cnc(-c2cncc(F)c2)nc1C(F)(F)F [Compound E14]", "Pre-emergence herbicidal activity, LOLPE": 0}
{"molecule": "O=C(Nc1cnc(-c2cncc(F)c2)nc1C(F)(F)F)N1CCOCC1 [Compound E8]", "Pre-emergence herbicidal activity, LOLPE": 1}
{"molecule": "Cc1nc(-c2cncnc2)ncc1NC(=O)OC(C)(C)C [Compound E7]", "Pre-emergence herbicidal activity, LOLPE": 1}
